Source listed as patent US20210032365A1.

Biological target: T1, human C1s (human, UniProt P09871 16-688)
T1 construct: also called hC1s; serum-derived human C1s (CompTech)
T1 sequence: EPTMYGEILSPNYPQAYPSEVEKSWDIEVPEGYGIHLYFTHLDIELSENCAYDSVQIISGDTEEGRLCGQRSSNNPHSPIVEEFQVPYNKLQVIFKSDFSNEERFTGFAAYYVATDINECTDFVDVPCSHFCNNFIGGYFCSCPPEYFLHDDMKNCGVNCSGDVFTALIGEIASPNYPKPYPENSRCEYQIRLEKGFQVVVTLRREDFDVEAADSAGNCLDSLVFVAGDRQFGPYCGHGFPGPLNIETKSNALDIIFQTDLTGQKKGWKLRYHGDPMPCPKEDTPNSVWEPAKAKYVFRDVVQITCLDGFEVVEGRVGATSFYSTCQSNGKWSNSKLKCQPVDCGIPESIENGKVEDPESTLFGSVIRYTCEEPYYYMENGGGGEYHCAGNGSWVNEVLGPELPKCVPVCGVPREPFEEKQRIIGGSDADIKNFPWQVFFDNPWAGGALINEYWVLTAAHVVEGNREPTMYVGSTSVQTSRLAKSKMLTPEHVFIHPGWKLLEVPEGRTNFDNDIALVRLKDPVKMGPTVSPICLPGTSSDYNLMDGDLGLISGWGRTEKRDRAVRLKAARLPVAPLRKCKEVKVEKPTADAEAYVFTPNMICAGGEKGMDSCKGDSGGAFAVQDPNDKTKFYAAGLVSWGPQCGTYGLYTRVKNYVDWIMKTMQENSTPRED
Assay: SPR; KD pH 5.8 3 uM Ca / KD pH 7.4 1.2 mM Ca
reported metric: KD 5(-)/7(+)
Reply: number alone, nothing else.

- binder: "C1_IPN92H0038-SG4GK/IPN009VK3-SK1 (antibody, human IgG4 S228P, kappa, name in Kabat numbering, V domains shown, also called IPN92H0038/IPN009VK3) VH: EVMLVESGGGLVKPGGSLRLSCAASGFTFSNYAMSWVRQAPGKGLEWVATISSGGSHTYYLDSVKHRFTISRDNSKDTLYLQMNSLRAEDTALYYCARLFTGHAMDYWGQGTLVTVSS VL: QIVLTQSPATLSLSPGERATLSCTASSSVSSSYLHWYQQKPGKAPKLWIYSTSNLASGVPSRFSGSGSGTDYTLTISSLQPEDFATYYCHQYYRLPPITFGQGTKLEIKR"
  result: 12.3
- binder: "C1_IPN92H0026-SG4GK/IPN93L0028-SK1 (antibody, human IgG4 S228P, kappa, name in Kabat numbering, V domains shown, also called IPN92H0026/IPN93L0028) VH: EVMLVESGGGLVKPGGSLRLSCAASGFTFSNYAMSWVRQAPGKGLEWVATISSGGSHTYYLDSVKHRFTISRDNSKDTLYLQMNSLRAEDTALYYCARLFTGYAMDYWGQGTLVTVSS VL: QIVLTQSPATLSLSPGERATLSCTASSSVSSSYLHWYQQKPGKAPKLWIYSTSNLASGVPSRFSGSGSGTDYTLTISSLQPEDFATYYCHQYHRHPPITFGQGTKLEIKR"
  result: 5.8

Query string: Tell me measured KD 5(-)/7(+) for C1_IPN92H0033-SG4GK/IPN93L0021-SK1 (antibody, human IgG4 S228P, kappa, name in Kabat numbering, V domains shown, also called IPN92H0033/IPN93L0021) VH: EVMLVESGGGLVKPGGSLRLSCAASGFTFSNYAMSWVRQAPGKGLEWVATISSGGSHTYYLDSVKGRFTISRDNSKDTLYLQMNSLRAEDTALYYCARLFTGHAMDYWGQGTLVTVSS VL: QIVLTQSPATLSLSPGERATLSCTASSSVSSSYLHWYQQKPGKAPKLWIYSTSNLASGVPSRFSGSGSGTDYTLTISSLQPEDFATYYCHQYHRLPPITFGQGTKLEIKR please.
Result string: 4

Query string: Tell me measured KD 5(-)/7(+) for C1_IPN92H0026-SG4GK/IPN93L0021-SK1 (antibody, human IgG4 S228P, kappa, name in Kabat numbering, V domains shown, also called IPN92H0026/IPN93L0021) VH: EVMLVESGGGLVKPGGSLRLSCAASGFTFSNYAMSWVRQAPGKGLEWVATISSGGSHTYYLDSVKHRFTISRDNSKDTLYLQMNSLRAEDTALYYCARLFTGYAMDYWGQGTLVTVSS VL: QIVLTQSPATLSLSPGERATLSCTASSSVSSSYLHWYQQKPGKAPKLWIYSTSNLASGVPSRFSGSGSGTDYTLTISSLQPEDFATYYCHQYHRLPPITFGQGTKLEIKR please.
Result string: 10.1

Query string: Tell me measured KD 5(-)/7(+) for C1_IPN92H0026-SG4GK/IPN93L0029-SK1 (antibody, human IgG4 S228P, kappa, name in Kabat numbering, V domains shown, also called IPN92H0026/IPN93L0029) VH: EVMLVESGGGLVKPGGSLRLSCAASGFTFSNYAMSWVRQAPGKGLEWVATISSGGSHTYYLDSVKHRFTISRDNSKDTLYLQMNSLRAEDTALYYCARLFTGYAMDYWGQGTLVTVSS VL: QIVLTQSPATLSLSPGERATLSCTASSSVSSSYLHWYQQKPGKAPKLWIYSTSNLASGVPSRFSGSGSGTDYTLTISSLQPEDFATYYCHQYHRLHPITFGQGTKLEIKR please.
Result string: 0.6

Query string: Tell me measured KD 5(-)/7(+) for C1_IPN92H0038-SG4GK/IPN93L0029-SK1 (antibody, human IgG4 S228P, kappa, name in Kabat numbering, V domains shown, also called IPN92H0038/IPN93L0029) VH: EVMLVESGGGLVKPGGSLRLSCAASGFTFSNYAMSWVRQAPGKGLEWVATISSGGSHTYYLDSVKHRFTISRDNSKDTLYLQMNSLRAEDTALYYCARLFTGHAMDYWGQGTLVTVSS VL: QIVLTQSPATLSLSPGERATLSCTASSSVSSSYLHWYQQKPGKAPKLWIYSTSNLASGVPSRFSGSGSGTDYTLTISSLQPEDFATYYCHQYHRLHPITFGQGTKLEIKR please.
Result string: 0.9

Query string: Tell me measured KD 5(-)/7(+) for C1_IPN92H0033-SG4GK/IPN93L0030-SK1 (antibody, human IgG4 S228P, kappa, name in Kabat numbering, V domains shown, also called IPN92H0033/IPN93L0030) VH: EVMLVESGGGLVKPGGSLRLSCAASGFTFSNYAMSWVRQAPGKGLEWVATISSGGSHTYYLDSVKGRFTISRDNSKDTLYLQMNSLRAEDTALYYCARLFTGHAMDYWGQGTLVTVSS VL: QIVLTQSPATLSLSPGERATLSCTASSSVSSSYLHWYQQKPGKAPKLWIYSTSNLASGVPSRFSGSGSGTDYTLTISSLQPEDFATYYCHQYYRHHPITFGQGTKLEIKR please.
Result string: 106

Query string: Tell me measured KD 5(-)/7(+) for C1_IPN92H0026-SG4GK/IPN93L0023-SK1 (antibody, human IgG4 S228P, kappa, name in Kabat numbering, V domains shown, also called IPN92H0026/IPN93L0023) VH: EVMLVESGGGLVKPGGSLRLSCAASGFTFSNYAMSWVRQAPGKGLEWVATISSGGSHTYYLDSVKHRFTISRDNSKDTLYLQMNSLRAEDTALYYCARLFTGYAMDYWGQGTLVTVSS VL: QIVLTQSPATLSLSPGERATLSCTASSSVSSSYLHWYQQKPGKAPKLWIYSTSNLASGVPSRFSGSGSGTDYTLTISSLQPEDFATYYCHQYYRHPPITFGQGTKLEIKR please.
Result string: 8.6

Query string: Tell me measured KD 5(-)/7(+) for C1_IPN009VH2-SG4GK/IPN93L0029-SK1 (antibody, human IgG4 S228P, kappa, name in Kabat numbering, V domains shown, also called IPN009VH2/IPN93L0029) VH: EVMLVESGGGLVKPGGSLRLSCAASGFTFSNYAMSWVRQAPGKGLEWVATISSGGSHTYYLDSVKGRFTISRDNSKDTLYLQMNSLRAEDTALYYCARLFTGYAMDYWGQGTLVTVSS VL: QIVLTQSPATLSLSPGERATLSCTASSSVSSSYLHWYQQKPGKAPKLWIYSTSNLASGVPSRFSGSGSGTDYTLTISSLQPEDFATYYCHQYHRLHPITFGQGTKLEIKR please.
Result string: 0.3
